tested on: human Factor 11 mRNA; assay: Antisense inhibition of human Factor 11 in HepG2 cells by microwalk gapmers, lipofectin, 75 nM (Example 3); assay type: cell-based; settings: HepG2, lipofectin, ~24 h, gapmers targeted to nucleobases 656 to 704 of SEQ ID NO: 1
Strand notation (5' to 3'): a small letter for the sugar, then the base; units joined by * are phosphorothioate-linked, units joined directly phosphodiester-linked; [ ] holds rarer units or linkages, { } end groups; capitals alone tell only the bases. e = 2'-O-(2-methoxyethyl) (MOE); [5mC] = 5-methylcytosine; d = 2'-deoxy (DNA)
Would you mind telling me the reported % inhibition of each entry?
// return numeric value only (unit: %, not printed)

Q) Complete the entry with % inhibition for 416882 (antisense eT*e[5mC]*eT*dA*dG*dG*dT*d[5mC]*d[5mC]*dA*d[5mC]*dA*dT*dA*dA*dA*dT*eG*eT*e[5mC]) [compound 416882]
A) 60

Q) Return reported % inhibition. Input substance: 416958 (antisense e[5mC]*eT*dA*dG*dG*dT*d[5mC]*d[5mC]*dA*d[5mC]*dA*dT*dA*dA*dA*eT*eG*eT*e[5mC]*eT) [compound 416958]
A) 43

Q) Answer with the recorded % inhibition of 413467 (antisense eG*eG*eT*e[5mC]*e[5mC]*dA*d[5mC]*dA*dT*dA*dA*dA*dT*dG*dT*e[5mC]*eT*eT*eT*eG) [compound 413467] only.
A) 92

Q) For the substance 416888 (antisense eT*eT*e[5mC]*dA*dT*dG*dT*d[5mC]*dT*dA*dG*dG*dT*d[5mC]*d[5mC]*dA*d[5mC]*eA*eT*eA) [compound 416888] , give its measured % inhibition value.
A) 76

Q) For the substance 416808 (antisense eA*eT*eA*eA*eA*dT*dG*dT*d[5mC]*dT*dT*dT*dG*dT*dT*eG*e[5mC]*eA*eA*eG) [compound 416808] , give its measured % inhibition value.
A) 55

Q) Quickly give me recorded % inhibition for 416891 (antisense e[5mC]*e[5mC]*e[5mC]*dT*dT*d[5mC]*dA*dT*dG*dT*d[5mC]*dT*dA*dG*dG*dT*d[5mC]*e[5mC]*eA*e[5mC]) [compound 416891]
A) 81

Q) Find the measured % inhibition of 416960 (antisense eG*eT*d[5mC]*dT*dA*dG*dG*dT*d[5mC]*d[5mC]*dA*d[5mC]*dA*dT*dA*eA*eA*eT*eG*eT) [compound 416960] and report it.
A) 60

Q) Report % inhibition for 416965 (antisense eT*eT*d[5mC]*dA*dT*dG*dT*d[5mC]*dT*dA*dG*dG*dT*d[5mC]*d[5mC]*eA*e[5mC]*eA*eT*eA) [compound 416965]
A) 53

Q) Please give the documented % inhibition of 416823 (antisense e[5mC]*e[5mC]*eT*eT*e[5mC]*dA*dT*dG*dT*d[5mC]*dT*dA*dG*dG*dT*e[5mC]*e[5mC]*eA*e[5mC]*eA) [compound 416823]
A) 77

Q) Please look at this substance and report its % inhibition: 416807 (antisense eT*eA*eA*eA*eT*dG*dT*d[5mC]*dT*dT*dT*dG*dT*dT*dG*e[5mC]*eA*eA*eG*e[5mC]) [compound 416807]
A) 51

Q) Return value of % inhibition for input 416889 (antisense e[5mC]*eT*eT*d[5mC]*dA*dT*dG*dT*d[5mC]*dT*dA*dG*dG*dT*d[5mC]*d[5mC]*dA*e[5mC]*eA*eT) [compound 416889] , no commentary.
A) 60
